molecular target: MAGL (Homo sapiens (Human)); experiment: In vitro competitive activity-based protein profiling, human proteomes (prefrontal cortex or PC3 cell membrane fractions); type: biochemical; conditions: 1 μM, human proteome; read-out: MAGL % inh. 1 μM (human)
Sequence (Q99685 whole entry): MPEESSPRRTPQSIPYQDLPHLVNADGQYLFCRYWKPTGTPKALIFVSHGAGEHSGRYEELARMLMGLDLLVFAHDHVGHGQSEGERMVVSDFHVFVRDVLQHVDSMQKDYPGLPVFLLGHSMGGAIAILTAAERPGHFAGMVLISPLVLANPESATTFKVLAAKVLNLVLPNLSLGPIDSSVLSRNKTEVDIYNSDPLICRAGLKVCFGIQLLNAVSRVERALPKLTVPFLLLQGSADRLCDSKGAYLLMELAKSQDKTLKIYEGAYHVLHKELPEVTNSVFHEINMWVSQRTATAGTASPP
Measured Endpoint: inhibition at 1 µM

[
  {
    "Compound": "CN(Cc1ccc(C(F)(F)F)cc1N1CCOCC1)C1(C)CCN(C(=O)n2ccc(NS(C)(=O)=O)n2)CC1",
    "System Under Test": "MAGL (Homo sapiens (Human))",
    "Obs Value": "> 75%"
  },
  {
    "Compound": "CC(=O)Nc1ccn(C(=O)N2CCC3(CC2)CN(Cc2ccc(C(N)=O)c(C(F)(F)F)c2)C3)n1",
    "System Under Test": "MAGL (Homo sapiens (Human))",
    "Obs Value": "> 75%"
  },
  {
    "Compound": "CC(=O)Nc1ccn(C(=O)N2CC3CN(Cc4ccc(C(N)=O)c(C(F)(F)F)c4)CC3C2)n1 (centres unmarked)",
    "System Under Test": "MAGL (Homo sapiens (Human))",
    "Obs Value": "> 75%"
  },
  {
    "Compound": "C[C@@H]1CN(C(=O)n2ccc(NS(C)(=O)=O)n2)CCN1Cc1ccc(Cl)c(C2CCCC2)c1",
    "System Under Test": "MAGL (Homo sapiens (Human))",
    "Obs Value": "> 75%"
  },
  {
    "Compound": "CC(=O)Nc1ccn(C(=O)N2CC3CN(Cc4cc(Cl)cc(C(C)(C)O)c4)CC3C2)n1 (centres unmarked)",
    "System Under Test": "MAGL (Homo sapiens (Human))",
    "Obs Value": "> 75%"
  },
  {
    "Compound": "CS(=O)(=O)Nc1ccn(C(=O)N2CCC3(CCN(Cc4ccc(Cl)cc4)C3)CC2)n1",
    "System Under Test": "MAGL (Homo sapiens (Human))",
    "Obs Value": "> 75%"
  },
  {
    "Compound": "CS(=O)(=O)Nc1ccn(C(=O)N2CCC(Oc3ccc(C(F)(F)F)cc3N3C4CCC3COC4)CC2)n1",
    "System Under Test": "MAGL (Homo sapiens (Human))",
    "Obs Value": "> 75%"
  },
  {
    "Compound": "CC(=O)Nc1ccn(C(=O)N2CC3CN(Cc4cc(F)cc(Cl)c4)CC3C2)n1 (centres unmarked)",
    "System Under Test": "MAGL (Homo sapiens (Human))",
    "Obs Value": "> 75%"
  }
]

###

We begin with a simple list: items and their reported inhibition at 10 µM.
target: MAGL (Homo sapiens (Human)); assay: In vitro competitive activity-based protein profiling, human proteomes (prefrontal cortex or PC3 cell membrane fractions); assay type: biochemical; conditions: 10 μM, human proteome; read-out: MAGL % inh. (human) @ 10 μM

[
  {
    "Compound": "CS(=O)(=O)Nc1ccn(C(=O)N2CCN(Cc3ccc(Cl)c(N4CC5CNCC5C4)c3)CC2)n1 (centres unmarked)",
    "inhibition at 10 µM": "> 75%"
  },
  {
    "Compound": "CS(=O)(=O)Nc1ccn(C(=O)N2CC3CN(Cc4cc(Cl)ccc4C(F)(F)F)CC3C2)n1 (centres unmarked)",
    "inhibition at 10 µM": "0 to 25%"
  },
  {
    "Compound": "CS(=O)(=O)Nc1ccn(C(=O)N2CCN(Cc3ccc(C(N)=O)c(C(F)(F)F)c3)CC2)n1",
    "inhibition at 10 µM": "50 to 75%"
  },
  {
    "Compound": "CC1(N(CC(=O)O)Cc2ccc(C(F)(F)F)cc2N2CCCC2)CCN(C(=O)n2ccc(NS(C)(=O)=O)n2)CC1",
    "inhibition at 10 µM": "50 to 75%"
  },
  {
    "Compound": "C[C@@H]1C[C@H](N(C)Cc2ccc(Cl)c(N3CC4COCC4C3)c2)CCN1C(=O)n1ccc(NS(C)(=O)=O)n1 (some centres unmarked)",
    "inhibition at 10 µM": "0 to 25%"
  },
  {
    "Compound": "CS(=O)(=O)Nc1ccn(C(=O)N2CCC3(CCN(Cc4ccccc4)C3)CC2)n1",
    "inhibition at 10 µM": "> 75%"
  },
  {
    "Compound": "CS(=O)(=O)Nc1ccn(C(=O)N2CCC3(CCCN3Cc3ccc(C(F)(F)F)cc3NCCCC(=O)O)CC2)n1",
    "inhibition at 10 µM": "> 75%"
  },
  {
    "Compound": "CS(=O)(=O)Nc1ccn(C(=O)N2CCC3(CCCN3Cc3cc4ccc(C(F)(F)F)cc4s3)CC2)n1",
    "inhibition at 10 µM": "> 75%"
  },
  {
    "Compound": "C#Cc1ccc(CN2CCN(C(=O)n3ccc(NS(C)(=O)=O)n3)CC2)cc1",
    "inhibition at 10 µM": "> 75%"
  },
  {
    "Compound": "CS(=O)(=O)Nc1ccn(C(=O)N2CCC3(CCN(Cc4cc(Cl)ccc4C(F)(F)F)C3)CC2)n1",
    "inhibition at 10 µM": "25 to 50%"
  },
  {
    "Compound": "C[C@H]1C[C@@H](N(C)Cc2ccc(Cl)c(N3CC4COCC4C3)c2)CCN1C(=O)n1ccc(NS(C)(=O)=O)n1 (some centres unmarked)",
    "inhibition at 10 µM": "50 to 75%"
  }
]
